Biological target: Proteasome subunit beta type-8 (Homo sapiens)
Sequence (P28062 whole entry): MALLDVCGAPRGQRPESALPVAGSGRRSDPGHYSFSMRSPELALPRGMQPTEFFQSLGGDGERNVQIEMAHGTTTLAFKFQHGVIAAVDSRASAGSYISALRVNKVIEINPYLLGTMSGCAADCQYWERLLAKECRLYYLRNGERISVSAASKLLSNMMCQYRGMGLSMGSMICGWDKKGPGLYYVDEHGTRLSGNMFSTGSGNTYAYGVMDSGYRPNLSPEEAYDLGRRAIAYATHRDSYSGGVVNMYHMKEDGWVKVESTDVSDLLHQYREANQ
Experiment: Inhibition of human 20S immunoproteasome beta-5i subunit using Suc-LLVY-AMC as substrate preincubated for 2 hrs followed by substrate addition and measured after 1 hr by fluorescence intensity assay
pIC50: −log10 of the molar value.
READOUT_LABEL: pIC50

Solved cases below.
Assign pIC50 to the following record: Cc1cccc2c(C[C@H](NC(=O)Cc3ccccc3)B(O)O)coc12
8.35

Supply measured pIC50 of O=C(N[C@@H](Cc1coc2ccccc12)B(O)O)[C@@H]1CCOC1 in your reply.
8.00

Output pIC50 of O=C(Cc1ccccc1)N[C@@H](Cc1ccccc1)B(O)O
6.80

[I] COCC(=O)N[C@@H](Cc1coc2ccccc12)B(O)O
[II] O=C(Cc1ccccc1)N[C@@H](Cc1ccc(Cl)cc1)B(O)O
[III] O=C(Cc1ccccc1)N[C@@H](C[C@@H]1COc2c(Cl)cccc21)B(O)O
[IV] O=C(Cc1ccccc1)N[C@@H](C[C@H]1COc2c(Cl)cccc21)B(O)O
Sort entries by pIC50 from minimum to maximum value. Answer with the labels in sequence, matching the requested order.
IV, II, I, III
(IV: 6.21, II: 7.42, I: 8.22, III: 8.74)

[P] O=C(Cc1ccccc1)N[C@@H](Cc1coc2c(F)cccc12)B(O)O
[Q] O=C(Cc1ccccc1)N[C@@H](Cc1c(Cl)oc2ccccc12)B(O)O
Smaller pIC50 value, P vs Q ? I would appreciate it if you answered with the label of your choice.
Q

[P] N#Cc1ccccc1CC(=O)N[C@@H](C[C@@H]1COc2c(Cl)cccc21)B(O)O
[Q] O=C(N[C@@H](Cc1coc2ccccc12)B(O)O)[C@H]1CCOC1
Compare reported pIC50 values for P and Q . Which is lower? I would appreciate it if you answered with the label of your choice.
Q

[a] O=C(Cc1cccnc1)N[C@@H](Cc1coc2ccccc12)B(O)O
[b] Cc1cccc2c1OC[C@H]2C[C@H](NC(=O)Cc1ccccc1C#N)B(O)O
Returns: the argument ( a or b ) having the larger pIC50. Answer format: the label of the selected item.
a

All figures here come from ChEMBL document CHEMBL5149996.
